Value source: BindingDB's records for doi:10.1038/nchembio.1629

biological target: Mitogen-activated protein kinase 8 [1-363] (Homo sapiens, UniProt P45983); construct: 1-363; test: Selectivity screening
Sequence (P45983 1-363): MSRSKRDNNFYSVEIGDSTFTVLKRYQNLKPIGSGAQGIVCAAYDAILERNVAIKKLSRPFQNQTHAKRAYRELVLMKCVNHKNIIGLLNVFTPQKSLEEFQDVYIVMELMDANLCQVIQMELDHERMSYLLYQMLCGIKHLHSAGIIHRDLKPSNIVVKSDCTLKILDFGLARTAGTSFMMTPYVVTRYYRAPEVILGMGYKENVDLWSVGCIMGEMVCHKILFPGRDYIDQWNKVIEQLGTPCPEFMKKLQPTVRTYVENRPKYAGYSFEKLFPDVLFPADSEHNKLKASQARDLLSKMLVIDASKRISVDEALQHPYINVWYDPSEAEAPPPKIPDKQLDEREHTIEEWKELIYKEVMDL
readout.kind: IC50
Just the number plus its unit, please.

## Task IC50 lookup needed for O=C(Nc1ccc2[nH]nc(-c3ccncc3)c2c1)[C@H]1CCN(CC(=O)N2CCN(c3ccc(-c4ncccn4)cc3)CC2)C1 , thanks.
## Result 1080 nM

----------
Biological target: Mitogen-activated protein kinase 3 (Homo sapiens)
Sequence (P27361 whole entry): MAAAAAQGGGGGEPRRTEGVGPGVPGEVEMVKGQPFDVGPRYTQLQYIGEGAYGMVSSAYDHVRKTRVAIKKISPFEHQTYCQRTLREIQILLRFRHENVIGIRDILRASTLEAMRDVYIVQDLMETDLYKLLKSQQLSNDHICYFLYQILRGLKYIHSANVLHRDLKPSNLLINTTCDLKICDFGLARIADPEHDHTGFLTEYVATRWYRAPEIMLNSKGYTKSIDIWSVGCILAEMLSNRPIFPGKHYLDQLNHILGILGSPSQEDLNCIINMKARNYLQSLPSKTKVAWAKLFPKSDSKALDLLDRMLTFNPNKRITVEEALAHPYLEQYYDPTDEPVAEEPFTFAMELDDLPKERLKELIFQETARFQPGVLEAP
Test: ITC
Conditions: pH 7.5; 15 °C
Method: For ERK1 and ERK2, the buffer contained 20 mM HEPES (pH 7.5), 150 mM NaCl and 0.5 mM TCEP. For haspin, the buffer contained 20 mM HEPES (pH 7.5), 250 mM NaCl and 0.5 mM TCEP. Titration was performed at 15 °C by injecting 100 µM protein into a reaction cell containing the inhibitors (7 µM).
readout.kind: pKd
# reply with the number alone; pKd is -log10 of concentration in mol/L

## Task What value of pKd has been reported for the following molecule? O=C(Nc1ccc2[nH]nc(-c3ccncc3)c2c1)[C@H]1CCN(CC(=O)N2CCN(c3ccc(-c4ncccn4)cc3)CC2)C1 [SCH772984]
## Result 6.67

----------
biological target: Dual specificity protein kinase CLK1 (Homo sapiens, UniProt P49759)
Sequence (P49759 whole entry): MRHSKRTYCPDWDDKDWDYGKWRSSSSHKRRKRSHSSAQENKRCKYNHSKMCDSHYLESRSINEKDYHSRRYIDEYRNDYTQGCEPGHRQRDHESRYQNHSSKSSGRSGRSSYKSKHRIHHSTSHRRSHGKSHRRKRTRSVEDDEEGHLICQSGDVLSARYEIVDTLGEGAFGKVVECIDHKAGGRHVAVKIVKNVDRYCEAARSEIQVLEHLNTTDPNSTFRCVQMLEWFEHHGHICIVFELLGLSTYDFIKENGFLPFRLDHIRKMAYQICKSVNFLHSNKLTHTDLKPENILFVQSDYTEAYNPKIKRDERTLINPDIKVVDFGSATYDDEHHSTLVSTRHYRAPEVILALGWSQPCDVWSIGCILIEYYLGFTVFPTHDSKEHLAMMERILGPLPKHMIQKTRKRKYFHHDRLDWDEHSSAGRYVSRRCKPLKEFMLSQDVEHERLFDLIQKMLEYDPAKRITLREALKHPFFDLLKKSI
readout.kind: IC50 (nM)
Lab book: enter the figure in nM, no units written.

## Task Give Dual specificity protein kinase CLK1 (Homo sapiens, UniProt P49759) IC50 for O=C(Nc1ccc2[nH]nc(-c3ccncc3)c2c1)[C@H]1CCN(CC(=O)N2CCN(c3ccc(-c4ncccn4)cc3)CC2)C1 [SCH772984]
## Result 508

----------
Target: Dual specificity mitogen-activated protein kinase kinase 3 (Homo sapiens)
Sequence (P46734 whole entry): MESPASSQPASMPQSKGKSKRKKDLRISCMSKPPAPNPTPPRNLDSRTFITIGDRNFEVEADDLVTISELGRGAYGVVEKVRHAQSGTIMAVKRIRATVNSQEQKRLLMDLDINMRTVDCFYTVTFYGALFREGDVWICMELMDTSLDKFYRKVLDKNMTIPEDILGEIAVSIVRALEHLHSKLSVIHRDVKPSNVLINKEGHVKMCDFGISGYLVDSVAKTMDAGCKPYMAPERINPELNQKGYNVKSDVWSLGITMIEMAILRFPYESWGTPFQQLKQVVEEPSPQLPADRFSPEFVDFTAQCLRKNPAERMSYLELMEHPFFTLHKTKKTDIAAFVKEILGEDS
Assay: Selectivity screening
Experimental: The IC50 values of selected kinases were determined using either Z'LYTE, Adapta or LanthaScreen assays.
readout.kind: pIC50
The meaning of pIC50 here: minus log10 of the concentration in molar units.

## Task I have this molecule here, O=C(Nc1ccc2[nH]nc(-c3ccncc3)c2c1)[C@H]1CCN(CC(=O)N2CCN(c3ccc(-c4ncccn4)cc3)CC2)C1 , and I need its recorded pIC50.
## Result 6.52

----------
target: Serine/threonine-protein kinase haspin [465-798] (Homo sapiens, UniProt Q8TF76)
Sequence (Q8TF76 465-798): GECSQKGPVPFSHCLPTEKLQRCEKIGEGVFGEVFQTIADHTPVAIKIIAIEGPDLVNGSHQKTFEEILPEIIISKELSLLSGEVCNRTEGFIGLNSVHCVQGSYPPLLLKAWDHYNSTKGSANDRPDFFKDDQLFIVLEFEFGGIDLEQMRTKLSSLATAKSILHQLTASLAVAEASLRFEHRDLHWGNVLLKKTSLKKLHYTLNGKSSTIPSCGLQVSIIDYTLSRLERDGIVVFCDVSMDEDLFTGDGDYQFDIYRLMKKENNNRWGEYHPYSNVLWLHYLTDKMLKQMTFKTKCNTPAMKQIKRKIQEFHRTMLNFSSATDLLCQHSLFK
readout.kind: Kd (nM)
State the answer as a number, implicitly in nM.

## Task Any idea what Kd was measured for O=C(Nc1ccc2[nH]nc(-c3ccncc3)c2c1)[C@H]1CCN(CC(=O)N2CCN(c3ccc(-c4ncccn4)cc3)CC2)C1 ?
## Result 297

----------
molecular target: Mitogen-activated protein kinase kinase kinase kinase 4 (Homo sapiens); assay: Selectivity screening
Sequence (O95819 whole entry): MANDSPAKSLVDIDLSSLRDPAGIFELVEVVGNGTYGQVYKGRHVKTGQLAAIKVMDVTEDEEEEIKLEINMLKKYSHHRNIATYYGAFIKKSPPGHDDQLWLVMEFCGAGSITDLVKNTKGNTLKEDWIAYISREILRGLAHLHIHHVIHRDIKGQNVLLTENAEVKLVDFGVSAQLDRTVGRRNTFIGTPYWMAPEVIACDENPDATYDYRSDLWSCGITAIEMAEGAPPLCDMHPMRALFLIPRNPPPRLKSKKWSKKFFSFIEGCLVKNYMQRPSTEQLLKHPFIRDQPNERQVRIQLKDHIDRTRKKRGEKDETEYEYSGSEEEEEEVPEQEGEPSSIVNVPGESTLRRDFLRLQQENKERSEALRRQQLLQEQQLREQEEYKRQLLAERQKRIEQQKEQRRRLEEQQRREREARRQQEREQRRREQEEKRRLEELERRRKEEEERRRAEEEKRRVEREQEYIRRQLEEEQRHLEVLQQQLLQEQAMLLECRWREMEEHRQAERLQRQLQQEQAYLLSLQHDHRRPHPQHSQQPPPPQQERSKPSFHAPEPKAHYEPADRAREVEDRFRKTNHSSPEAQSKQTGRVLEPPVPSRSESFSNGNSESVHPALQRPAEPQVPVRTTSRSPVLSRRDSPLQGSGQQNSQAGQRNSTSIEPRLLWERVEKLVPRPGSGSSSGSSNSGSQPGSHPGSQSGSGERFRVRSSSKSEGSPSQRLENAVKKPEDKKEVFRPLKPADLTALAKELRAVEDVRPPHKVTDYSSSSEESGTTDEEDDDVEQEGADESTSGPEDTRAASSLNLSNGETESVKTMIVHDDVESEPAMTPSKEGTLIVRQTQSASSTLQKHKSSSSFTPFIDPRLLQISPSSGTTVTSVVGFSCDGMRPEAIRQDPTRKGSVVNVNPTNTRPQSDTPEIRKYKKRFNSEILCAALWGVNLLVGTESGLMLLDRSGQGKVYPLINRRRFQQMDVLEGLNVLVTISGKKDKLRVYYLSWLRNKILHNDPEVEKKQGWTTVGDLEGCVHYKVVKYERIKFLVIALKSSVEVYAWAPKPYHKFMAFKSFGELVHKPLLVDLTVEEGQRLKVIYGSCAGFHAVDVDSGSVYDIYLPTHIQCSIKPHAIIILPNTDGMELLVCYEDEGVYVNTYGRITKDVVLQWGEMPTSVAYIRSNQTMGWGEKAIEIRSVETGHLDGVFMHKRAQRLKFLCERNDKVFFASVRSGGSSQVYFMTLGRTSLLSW
readout.kind: pIC50
Expect pIC50 as a plain number equal to -log10 of the molar concentration.

## Task Returns the measured pIC50 for the input compound. Input: O=C(Nc1ccc2[nH]nc(-c3ccncc3)c2c1)[C@H]1CCN(CC(=O)N2CCN(c3ccc(-c4ncccn4)cc3)CC2)C1
## Result 6.30
